# Tested on: IL-12 mRNA
# PROTOCOL NOTES: IL-12 mRNA in LPS-activated primary murine macrophages
# Assay type: cell-based, mouse
# MEASUREMENT CONTEXT: 300 nM oligomeric compound and LPS, no IFN-gamma pretreatment; single experiment; normalized to LPS-treated cells without oligomeric compound
In the oligonucleotide strings, read from the 5' end, every base follows the letter of its sugar. An asterisk marks phosphorothioate; unmarked linkages are phosphodiester. Other units and linkages are bracketed, terminal groups are in braces. A string of capitals states the bases alone. e = 2'-O-(2-methoxyethyl) (MOE); [5mC] = 5-methylcytosine
Sorting guide: entries reporting IL-12 mRNA expression, −IFN % UTC beneath 200 % UTC go in the rule met pile, the rest go in the rule not met pile.

[[record]]
substance = "327913 (antisense eA*eA*e[5mC]*e[5mC]*eG*eA*eT*eT*eT*e[5mC]*eA*eA*eA*eT*eG*eG*eT*eG*e[5mC]*eT*eA*eG) [compound 327913]"
group = "rule not met"


q: Consider 342673 (antisense eA*eG*eA*e[5mC]*eT*eA*eG*e[5mC]*eG*eG*eT*eA*eT*e[5mC]*eT*eT*eT*eA*eT*e[5mC]*e[5mC]*e[5mC]) [compound 342673] . Does its IL-12 mRNA expression, −IFN % UTC lie strictly below 200 % UTC?
a: rule met

q: Can you handle 327921 (antisense e[5mC]*eT*eT*e[5mC]*e[5mC]*eA*eG*eT*e[5mC]*eG*eG*eG*eG*eA*eT*eG*eT*eT*eT*eA*e[5mC]*eA) [compound 327921] next?
a: rule not met
